Where do these numbers come from? They come from PubChem BioAssay AID1851.

test system: Cytochrome P450 3A4 (Homo sapiens) (UniProt P08684)
Sequence (P08684 whole entry, looked up): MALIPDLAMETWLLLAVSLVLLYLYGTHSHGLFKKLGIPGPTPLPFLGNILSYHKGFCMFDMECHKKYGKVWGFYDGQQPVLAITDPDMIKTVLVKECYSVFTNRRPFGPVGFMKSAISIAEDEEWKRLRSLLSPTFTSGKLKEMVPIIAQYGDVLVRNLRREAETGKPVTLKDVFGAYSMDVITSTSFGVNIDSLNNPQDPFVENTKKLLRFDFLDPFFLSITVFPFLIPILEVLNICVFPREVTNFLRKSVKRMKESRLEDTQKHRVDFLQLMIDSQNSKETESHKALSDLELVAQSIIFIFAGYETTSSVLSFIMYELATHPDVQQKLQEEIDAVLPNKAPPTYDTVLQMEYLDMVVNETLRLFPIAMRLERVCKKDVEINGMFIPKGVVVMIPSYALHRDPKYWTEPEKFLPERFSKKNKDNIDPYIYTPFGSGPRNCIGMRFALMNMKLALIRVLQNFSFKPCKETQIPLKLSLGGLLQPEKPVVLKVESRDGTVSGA
protocol text: Cytochrome panel assay with activity outcomes
test context: recombinant CYP, pro-luciferin dealkylation, luminescence, p450-cyp3a4; series mostly up to 57.1 µM
In all, about 16,000 compounds went through this assay and about 5,100 (32%) were called active. Not shown: some 25% with an inconclusive outcome. The call rests on the fitted dose curve; in most records, active means well fitted curve in the direction sought with a large enough effect; inconclusive means small, poorly fitted or top-dose-only effect, or effect the other way; inactive means no such curve, though single readings can be large or run the other way. This is one part of the list.
Write down one outcome, taken from yes (1) for active, no (0) for inactive

Q: Assay result, entry COC(=O)c1cc(NC(=O)CC2NC3CCCCC3NC2=O)cc(C(=O)OC)c1 (stereo not given) — outcome?
Result: yes (1)

Q: Assay result, entry COc1c(O)cc2c(c1O)[C@@H]1O[C@@H](CO)[C@@H](O)[C@@H](O)[C@@H]1OC2=O — outcome?
Result: no (0)

Q: Assay result, entry COc1ccccc1CN(Cc1cc2cc(C)cc(C)c2[nH]c1=O)Cc1nnnn1CC1CCCO1 (stereo not given) — outcome?
Result: yes (1)

Q: Assay result, entry COC(=O)[C@@]1(Cc2ccccc2)[C@H]2c3cc(C(=O)N4CCCC4)n(Cc4ccccn4)c3C[C@H]2CN1C(=O)c1ccccc1 — outcome?
Result: yes (1)

Q: Assay result, entry COc1cccc(CNC(=O)CCNC(=O)Cn2ccc3ccccc3c2=O)c1 — outcome?
Result: yes (1)

Q: Assay result, entry COc1ccc(CNc2ncnc3ccc(-c4ccccc4OC)cc23)c(OC)c1 — outcome?
Result: yes (1)

Q: Assay result, entry Cn1cc(C(=O)c2cccc(Cl)c2Cl)cc1C(=O)O — outcome?
Result: no (0)

Q: Assay result, entry CC1(C)S[C@@H]2[C@H](NC(=O)[C@@H](NC(=O)N3CCNC3=O)c3ccccc3)C(=O)N2[C@H]1C(=O)O — outcome?
Result: no (0)

Q: Assay result, entry CC(C)SC(=N)N — outcome?
Result: no (0)

Q: Assay result, entry C=CCNc1oc(/C=C/c2ccccc2)nc1C#N — outcome?
Result: yes (1)

Q: Assay result, entry COC(=O)N1CCC2(CCN(Cc3cc(C(F)(F)F)cc(C(F)(F)F)c3)CC2)CC1 — outcome?
Result: no (0)

Q: Assay result, entry Cc1ccc(-n2c(=O)c3sccc3n(CC(=O)NCc3ccco3)c2=O)cc1F — outcome?
Result: no (0)

Q: Assay result, entry CC(C)Oc1ccc(C(=O)Nc2ccc(NC(=O)c3ccco3)c(Cl)c2)cc1 — outcome?
Result: no (0)

Q: Assay result, entry CCC[C@@H]1C[C@@]1(CCC)C(NS(=O)(=O)c1cccc2cccnc12)c1ccc(Cl)cc1 (stereo not given in full) — outcome?
Result: yes (1)
